Can you tell me Kd for the items I'm about to list?
measurement_target: T1, soluble human CD3 epsilon chain (human, UniProt P07766 23-126)
T1 construct: also called CD3ε
T1 sequence (P07766 23-126 limits assumed): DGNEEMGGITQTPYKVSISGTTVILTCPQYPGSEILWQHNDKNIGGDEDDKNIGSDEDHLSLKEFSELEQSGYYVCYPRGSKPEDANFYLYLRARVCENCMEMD
experiment_description: SPR
Give bare numbers, in µM.

>  <binder>
TR01H084-E22Hh/none-Hi-Kn010G3/L0262-k0 (antibody, V domains shown, one-arm) VH: QVQLVESGGGVVQPGGSLRLSCAASGFTFSNAWMHWVRQAPGKGLEWVAQIKDKSQNYATYYAESVKGRFTISRADSKNSIYLQMNSLKTEDTAVYYCRYVHYAAGYGVDIWGQGTTVTVSS VL: DIVMTQSPLSLPVTPGEPASISCRSSQPPVHSNRNTYLHWYQQKPGQAPRLLIYKVSNRFSGVPDRFSGSGSGTDFTLKISRVEAEDVGVYYCAQGTQVPYTFGQGTKLEIK

>  <value_reported>
0.00851

$$$$
>  <binder>
TR01H058-E22Hh/none-Hi-Kn010G3/L0000-k0 (antibody, V domains shown, one-arm) VH: QVQLVESGGGLVQPGRSLRLSCAASGFTFSNAWMHWVRQAPGKGLEWVAQIKDKSQNYATYYAESVKGRFTISRDDSKNSLYLQMNSLKTEDTAVYYCRYVHYSASYGVDYWGQGTTVTVSS VL: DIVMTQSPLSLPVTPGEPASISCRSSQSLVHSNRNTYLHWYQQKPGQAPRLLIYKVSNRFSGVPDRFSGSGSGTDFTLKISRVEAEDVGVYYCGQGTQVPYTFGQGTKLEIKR

>  <value_reported>
0.115

$$$$

Shift focus to the following entry.
Reported Kd of TR01H067-E22Hh/none-Hi-Kn010G3/L0248-k0 (antibody, V domains shown, one-arm) VH: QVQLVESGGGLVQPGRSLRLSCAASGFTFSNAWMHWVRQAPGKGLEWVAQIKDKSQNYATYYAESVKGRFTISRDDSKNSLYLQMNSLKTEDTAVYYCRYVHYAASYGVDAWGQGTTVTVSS VL: DIVMTQSPLSLPVTPGEPASISCRPSQSPVHSNRNTYIQWYQQKPGQAPRLLIYKVSNRFSGVPDRFSGSGSGTDFTLKISRVEAEDVGVYYCYQGTQVPYTFGQGTKLEIK : 0.139
